# EXPERIMENTAL SYSTEM: T1, rat calcitonin receptor (rat, UniProt P32214 25-516)
# T1 sequence (looked up): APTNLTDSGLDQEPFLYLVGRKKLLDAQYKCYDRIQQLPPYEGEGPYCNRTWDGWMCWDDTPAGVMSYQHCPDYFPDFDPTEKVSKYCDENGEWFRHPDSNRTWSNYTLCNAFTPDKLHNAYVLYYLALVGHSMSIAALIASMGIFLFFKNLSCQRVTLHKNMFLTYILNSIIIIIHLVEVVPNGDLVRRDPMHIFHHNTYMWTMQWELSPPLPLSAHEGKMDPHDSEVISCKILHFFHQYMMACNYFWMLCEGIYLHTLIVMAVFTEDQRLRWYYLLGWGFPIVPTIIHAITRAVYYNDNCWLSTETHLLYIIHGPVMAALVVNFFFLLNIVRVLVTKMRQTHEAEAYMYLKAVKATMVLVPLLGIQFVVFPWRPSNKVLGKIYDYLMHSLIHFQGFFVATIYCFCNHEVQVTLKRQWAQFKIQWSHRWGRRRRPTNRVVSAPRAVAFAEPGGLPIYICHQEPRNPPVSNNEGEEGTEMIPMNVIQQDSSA
# ASSAY DETAILS: cell-based or functional assay
Numbered stars: 1 amine (or outer) side, 2 acyl side, 3 side chain; on linkers, the order of the positions; unused ones are H or OH. Bridge positions count the residues as written; N and C are the ends. Square brackets hold non-standard residues; d marks the D form. Side chains are listed from the residue outwards. Ends that are not written are not given here. * marks the point of attachment. C20 diacid = O=C(O)CCCCCCCCCCCCCCCCCCC(=O)*; C18 diacid = O=C(O)CCCCCCCCCCCCCCCCC(=O)*; γGlu = O=C(O)[C@H](CCC(=O)[*:2])N[*:1]; αMeF = C[C@](N)(Cc1ccccc1)C(=O)O; AEEA = NCCOCCOCC(=O)O
Assignment: determine reported EC50 (cAMP production) for the given binders.
One number for each entry, in nM.

Below, 4 binders whose answers are already recorded.
BINDER	MEASURED QUANTITY	OBSERVED
{C18 diacid-γGlu}-CNTATCATQRLAEFLRHSSNN[αMeF]GPILPPTNVGSNTY-NH2 (disulfide 1-6; numbers in words are those of the source; also: K1 deleted) [Peptide 10 (SEQ ID NO: 10)]	EC50 (cAMP production)	2.78
{C20 diacid-γGlu-AEEA-AEEA}-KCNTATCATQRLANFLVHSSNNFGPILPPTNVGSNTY-NH2 (disulfide 2-7) [Peptide 113 (SEQ ID NO: 113)]	EC50 (cAMP production)	10.4
K([γGlu-γGlu-C18 diacid])CNTATCATQRLANFLRHSSNN[αMeF]GPILPPTEVGSNTY-NH2 (disulfide 2-7) [Peptide 18 (SEQ ID NO: 18)]	EC50 (cAMP production)	3.09
{C18 diacid}-[γGlu]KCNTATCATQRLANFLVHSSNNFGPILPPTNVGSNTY-NH2 (disulfide 3-8) [Peptide 3 (SEQ ID NO: 3)]	EC50 (cAMP production)	0.186

Okay, now this binder:
**Q:** Consider the binder shown here: {C20 diacid-γGlu}-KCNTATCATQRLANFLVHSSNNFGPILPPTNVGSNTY-NH2 (disulfide 2-7) [Peptide 112 (SEQ ID NO: 112)] What is its recorded EC50 (cAMP production)?
**A:** 0.259
